ASSAYED_SYSTEM: JAK1 (h) (Homo sapiens, UniProt P23458)
Sequence (P23458 whole entry): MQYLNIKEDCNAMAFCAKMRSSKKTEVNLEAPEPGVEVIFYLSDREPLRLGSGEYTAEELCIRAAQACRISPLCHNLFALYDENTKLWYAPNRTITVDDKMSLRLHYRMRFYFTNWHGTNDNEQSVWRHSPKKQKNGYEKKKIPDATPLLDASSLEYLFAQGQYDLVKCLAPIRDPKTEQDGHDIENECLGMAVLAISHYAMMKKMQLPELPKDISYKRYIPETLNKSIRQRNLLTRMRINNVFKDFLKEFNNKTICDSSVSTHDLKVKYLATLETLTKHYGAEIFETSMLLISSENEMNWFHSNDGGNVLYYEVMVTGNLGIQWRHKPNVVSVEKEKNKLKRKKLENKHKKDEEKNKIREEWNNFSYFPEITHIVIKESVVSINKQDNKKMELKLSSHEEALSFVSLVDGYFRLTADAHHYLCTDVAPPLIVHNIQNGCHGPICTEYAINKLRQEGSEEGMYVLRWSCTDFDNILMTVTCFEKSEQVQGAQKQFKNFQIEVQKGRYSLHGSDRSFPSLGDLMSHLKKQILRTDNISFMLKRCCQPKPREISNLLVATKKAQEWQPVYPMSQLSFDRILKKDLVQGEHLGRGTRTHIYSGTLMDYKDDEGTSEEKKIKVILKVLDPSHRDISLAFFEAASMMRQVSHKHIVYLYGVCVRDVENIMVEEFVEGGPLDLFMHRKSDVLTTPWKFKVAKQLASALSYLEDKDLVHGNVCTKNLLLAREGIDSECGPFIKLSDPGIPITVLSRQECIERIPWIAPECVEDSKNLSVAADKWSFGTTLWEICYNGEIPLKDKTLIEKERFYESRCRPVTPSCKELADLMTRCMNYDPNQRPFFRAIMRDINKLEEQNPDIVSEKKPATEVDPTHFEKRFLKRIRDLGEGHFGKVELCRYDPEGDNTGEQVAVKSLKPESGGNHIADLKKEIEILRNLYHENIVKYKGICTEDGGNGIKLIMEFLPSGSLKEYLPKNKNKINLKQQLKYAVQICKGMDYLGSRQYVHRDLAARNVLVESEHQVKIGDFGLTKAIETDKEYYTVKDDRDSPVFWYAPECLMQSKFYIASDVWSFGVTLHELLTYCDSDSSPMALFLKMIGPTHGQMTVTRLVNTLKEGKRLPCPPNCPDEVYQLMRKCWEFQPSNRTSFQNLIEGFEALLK
pIC50: −log10 of the molar value.
READOUT_NAME: pIC50

CC(C)(O)Cc1nnc2cc(Nc3ncc(Cl)c(NC4CCN(c5ccc(C#N)nn5)CC4)n3)ccn12 [Example 75]    9.00
N#Cc1ccc(N2CCC(Nc3nc(Nc4ccn5cc(C(F)F)nc5c4)ncc3Cl)CC2)nn1 [Example 28]    9.30
CC(C)(O)c1nc2cc(Nc3ncc(Cl)c(NC4CCN(c5ccc(C#N)nn5)CC4)n3)ccn2n1 [Example 55]    9.05
N#Cc1ccc(N2CCC(Nc3nc(Nc4ccc5c(c4)nnn5CC4CC4)ncc3Cl)CC2)nc1 [Example 60]    9.40
CC(C)(F)c1nc2cc(Nc3ncc(Cl)c(NC4CCN(c5ccc(C#N)cn5)CC4)n3)ccn2n1 [Example 59]    9.15

(a) CCC1CN(c2ccc(C#N)cn2)CCC1Nc1nc(Nc2ccn3c(C)cnc3c2)ncc1Cl (centres unmarked) [Example 2]
(b) CC(C)(O)c1nc2cc(Nc3ncc(Cl)c(NC4CCN(c5ccc(C#N)cn5)CC4F)n3)ccn2n1 (centres unmarked) [Example 89]
From the items above, decide which of a and b has the lower pIC50 reading. Pick one and reply with its label.
b
(b: 8.70, a: 9.00)

---

PROTOCOL: Compound stability in rat liver microsomes
Assay type: in vitro ADME
MEASUREMENT_CONDITIONS: liver microsomes, pH 7.4; in vivo CLint extrapolated from rat liver microsome incubation
READOUT_NAME: CLint scaled at 5 μM (mL/min/kg)

Sample answers from the record:
CC(C)(O)c1nc2cc(Nc3ncc(Cl)c(NC4CCN(c5ccc(C#N)cc5)CC4)n3)ccn2n1    25.5
Cc1nc2cc(Nc3ncc(Cl)c(NC4CCN(c5ccc(C#N)nn5)CC4)n3)ccc2n1C    76.5
N#Cc1ccc(N2CCC(Nc3nc(Nc4ccc5c(c4)nnn5CC4CC4)ncc3Cl)CC2)nc1    732
CC(C)(O)Cc1nc2cc(Nc3ncc(Cl)c(NC4CCN(c5ccc(C#N)cn5)CC4)n3)ccn2n1    157
CC(C)(O)Cc1cn2ccc(Nc3ncc(Cl)c(NC4CCN(c5ccc(C#N)cn5)CC4)n3)cc2n1    1440

(a) CCC1CN(c2ccc(C#N)nn2)CCC1Nc1nc(Nc2ccn3c(C4CC4)cnc3c2)ncc1Cl (centres unmarked)
(b) Cc1cnc2cc(Nc3ncc(Cl)c(NC4CCN(c5ccc(C#N)nn5)CC4)n3)ccn12
From the items above, decide which of a and b has the lower CLint scaled at 5 μM reading. Pick one and reply with its label.
b

---

PROTOCOL: Compound stability in rat liver microsomes
Type: in vitro ADME
MEASUREMENT_CONDITIONS: rat liver microsomes 0.5 mg protein/mL, compound 5 μM, NADPH 1.0 mM, pH 7.4, 37° C.; read-out: Rat T1/2
Protocol: The LC/MS/MS system used in the analysis consists of an Agilent 1200 Series vacuum degasser, binary pump, well-plate autosampler, thermostatted column compartment, the Agilent G6430 Triple Quadrupole Mass Spectrometer with an electrosprayionization (ESI) source. Quantitative analysis was carried out using MRM mode. The parameters for MRM transitions are in the Table A. […] The concentrations of compounds in the incubation mixtures of human or rat liver microsomes were determined by a LC/MS/MS method. […]
READOUT_NAME: half-life at 5 μM (min)

Sample answers from the record:
N#Cc1ccc(N2CCC(Nc3nc(Nc4ccn5cc(C(F)F)nc5c4)ncc3Cl)CC2)nn1    15.1
CCCn1nnc2cc(Nc3ncc(Cl)c(NC4CCN(c5ccc(C#N)nn5)CC4)n3)ccc21    5.3
Cc1cnc2cc(Nc3ncc(Cl)c(NC4CCN(c5ccc(C#N)nn5)CC4)n3)ccn12    186
CC(C)(O)Cn1cnc2cc(Nc3ncc(Cl)c(NC4CCN(c5ccc(C#N)cn5)CC4)n3)ccc21    10

(a) CC(O)Cn1cnc2cc(Nc3ncc(Cl)c(NC4CCN(c5ccc(C#N)cn5)CC4)n3)cnc21 (stereo not shown)
(b) CC(C)(O)Cc1nc2cc(Nc3ncc(Cl)c(NC4CCN(c5ccc(C#N)cn5)CC4)n3)ccn2n1
(c) Cc1nnc2cc(Nc3ncc(Cl)c(NC4CCN(c5ccc(C#N)nn5)CC4)n3)ccn12
List the 3 entries from lowest half-life at 5 μM to highest half-life at 5 μM value. Provide the labels, sequenced as the question asks.
b, a, c
(b: 15.8 min, a: 29.2 min, c: 82.7 min)

(I) CCC1CN(c2ccc(C#N)cn2)CCC1Nc1nc(Nc2ccn3c(C)nnc3c2)ncc1Cl (stereo not shown)
(II) CC(C)(O)c1nnc2cc(Nc3ncc(Cl)c(NC4CCN(c5ccc(C#N)cn5)CC4)n3)ccn12
Returns: the argument ( I or II ) having the larger half-life at 5 μM. Pick one and reply with its label.
II

(1) CCC1CN(c2ccc(C#N)cn2)CCC1Nc1nc(Nc2ccn3c(C)cnc3c2)ncc1Cl (stereo not shown)
(2) CC(C)(O)Cc1nc2ccc(Nc3ncc(Cl)c(NC4CCN(c5ccc(C#N)cn5)CC4)n3)cn2n1
Returns: the argument ( 1 or 2 ) having the larger half-life at 5 μM. Pick one and reply with its label.
1

(A) CN(C)C(=O)c1nc2cc(Nc3ncc(Cl)c(NC4CCN(c5ccc(C#N)cn5)CC4)n3)ccn2n1
(B) CCC1CN(c2ccc(C#N)nn2)CCC1Nc1nc(Nc2ccn3c(C4CC4)cnc3c2)ncc1Cl (stereo not shown)
Returns: the argument ( A or B ) having the larger half-life at 5 μM. Pick one and reply with its label.
A
(A: 12.9 min, B: 2.98 min)
